Assay: Primary qHTS for inhibitors of nuclear receptor binding SET domain protein 2 (NSD2) in an RCH-ACV wild type WT cells (2C) (AID 1645877); further: nearly all actives have a fitted effect of over 70% in size
Conditions: RCH-ACV (leukaemia line) NSD2 WT (2C) viability, CellTiter-Glo, 72 h; series mostly up to 44.9 µM
Inconclusive results are not listed. Active and inactive are the calls of the source. The call rests on the fitted dose curve; in most records, active means well fitted inhibition curve with a large enough effect; inconclusive means small, poorly fitted or top-dose-only effect; inactive means no such curve, though single readings can be large or run the other way.
Output constraint: value belongs to 1 (yes) (active), 0 (no) (inactive)

>  <Compound>
Nc1nc(-c2nn(Cc3ccccc3F)c3ncccc23)ncc1C1CC1

>  <Classification>
1 (yes)

$$$$
>  <Compound>
COC(=O)/C=C/C(=O)OC

>  <Classification>
0 (no)

$$$$

Q. Per the records of this test, what outcome belongs to COc1nc(N)nc2c1ncn2C1OC(CO)C(O)C1O (stereo unspecified) ?
A. 1 (yes)

Q. Per the records of this test, what outcome belongs to `C[C@@H]1C[C@H](N)C[C@H](c2ccncc2NC(=O)c2ccc(F)c(-c3c(F)cccc3F)n2)C1` ?
A. 1 (yes)

Q. Per the records of this test, what outcome belongs to CC1(C)C(N(O)C(=O)Nc2ccc(Cl)cc2)N(c2ccc(Cl)cc2)C(=O)N1CC(=O)N/N=C/C=C/c1ccc([N+](=O)[O-])o1 (stereo unspecified) ?
A. 1 (yes)

Q. Per the records of this test, what outcome belongs to `O=C(NCc1ccc(S(=O)(=O)c2cccc(C(F)(F)F)c2)cc1)c1cnc2[nH]ncc2c1` ?
A. 1 (yes)
